All figures here come from ChEMBL document CHEMBL4371041.

# run-description: Stability in human hepatocytes assessed as parent compound remaining measured after 60 mins
# Format: ADME, cell-based, Hepatocyte
# condition: read-out: Stability

smiles-record	unit-annotation	remaining at 1 h
Cc1cccc(Cn2nc(Cl)c3c(NC(=O)c4csc5c(N)ncnc45)cccc32)n1	%	66
Cc1cccc(Cn2nc(C)c3c(NC(=O)c4csc5c(N)ncnc45)cccc32)n1	%	87

* * *

# target-entity: Macrophage colony-stimulating factor 1 receptor (Homo sapiens)
# Sequence (P07333 whole entry): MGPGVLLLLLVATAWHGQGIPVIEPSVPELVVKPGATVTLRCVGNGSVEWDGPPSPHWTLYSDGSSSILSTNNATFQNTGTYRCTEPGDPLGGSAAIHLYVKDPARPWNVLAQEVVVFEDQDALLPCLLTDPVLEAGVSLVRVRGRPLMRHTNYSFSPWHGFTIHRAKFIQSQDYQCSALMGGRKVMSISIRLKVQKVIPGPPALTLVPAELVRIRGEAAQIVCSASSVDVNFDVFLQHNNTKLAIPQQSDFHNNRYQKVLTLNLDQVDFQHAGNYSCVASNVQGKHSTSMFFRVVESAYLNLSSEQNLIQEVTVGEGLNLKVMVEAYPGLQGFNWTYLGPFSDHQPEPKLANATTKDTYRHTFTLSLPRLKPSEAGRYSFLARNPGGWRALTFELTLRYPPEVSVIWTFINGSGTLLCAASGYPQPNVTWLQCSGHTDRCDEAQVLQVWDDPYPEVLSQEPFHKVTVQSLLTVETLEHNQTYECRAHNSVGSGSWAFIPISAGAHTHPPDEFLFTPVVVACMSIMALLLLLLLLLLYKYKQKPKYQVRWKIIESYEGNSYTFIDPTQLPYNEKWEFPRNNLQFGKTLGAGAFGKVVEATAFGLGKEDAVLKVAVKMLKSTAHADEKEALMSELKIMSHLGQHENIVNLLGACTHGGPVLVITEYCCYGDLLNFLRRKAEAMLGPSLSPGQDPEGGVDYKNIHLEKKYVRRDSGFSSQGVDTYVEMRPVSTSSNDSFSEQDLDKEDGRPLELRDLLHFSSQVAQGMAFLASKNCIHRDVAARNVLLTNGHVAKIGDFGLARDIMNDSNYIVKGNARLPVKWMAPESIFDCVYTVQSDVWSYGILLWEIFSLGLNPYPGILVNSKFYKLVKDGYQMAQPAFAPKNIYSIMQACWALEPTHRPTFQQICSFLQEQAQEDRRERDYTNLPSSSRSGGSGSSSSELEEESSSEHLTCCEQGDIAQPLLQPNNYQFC
# run-description: […] at recombinant human N-terminal His6-tagged FMS (538 to end residues) expressed in baculovirus infected Sf21 insect cells using IGF-R1tide as substrate in presence of [gamma-33P]-ATP or [gamma-32P]-ATP

smiles-record	IC50 / nM
Cc1cccc(Cn2nc(C)c3c(NC(=O)c4csc5c(N)ncnc45)cccc32)n1	2
